Parameter remaining at 24 h, 20 mg/ml: see the listing below.
# Test Protocol: Stability of the compound in D2O assessed as compound remaining at 20 mg/ml at 20 degC after 24 hrs by 1H-NMR spectroscopic analysis
# Type: physicochemical
# Condition Context: read-out: Stability
Answer format reminder: number followed by unit.

In [3]: df
Out[3]:
           mol_smiles                    parameter  result
0  CCOC(=S)n1ccnc1.Cl  remaining at 24 h, 20 mg/ml     26%

Then this compound:
// recorded remaining at 24 h, 20 mg/ml for Cl.S=C(OC1CCCCC1)n1ccnc1 : 8%

###

Recorded EC50 for the following molecules
# Test system: Aorta
# Test Protocol: Vasodilating activity in potassium chloride-mediated precontracted guinea pig aorta compound treated every 45 mins by chart recorder analysis
# Format: functional, tissue-based
# Condition Context: Cavia porcellus, 0.75 h
Give just the numeric value; µM need not be written.

These solved cases illustrate the format of a correct answer.
                    mol_smiles  parameter  quantity_unit  measured_number
0   COc1ccc(CSC(=S)n2ccnc2)cc1       EC50             µM               13
1            CCCCOC(=S)n1ccnc1       EC50             µM               13
2  CC(C)CN(CC(C)C)C(=S)n1ccnc1       EC50             µM               14

Entry under test: CSC(=S)n1ccnc1C . Its EC50 was 6.3

The molecule CC(=O)OCCSC(=S)n1ccnc1 showed EC50 equal to 5.8

Recorded result, CCOC(=S)n1ccnc1.Cl , EC50: 53

The recorded EC50 for CSC(=S)n1ccnc1.Cl is 7.8

So for Cl.S=C(OC1CCCCC1)n1ccnc1 , the logged EC50 turned out to be 14

Lab note: S=C(SCc1ccccc1)n1ccnc1 gave EC50 of 20

Lookup result for S=C(OC1CCCC1)n1ccnc1 ; measured EC50: 36

###

Each entry below carries its recorded half-life at 20 mg/ml.
# Test Protocol: Half life of the compound in D2O at 20 mg/ml at 20 degC by 1H-NMR spectroscopic analysis
# Type: physicochemical
Report the figure in h without appending any unit label.

                 mol_smiles              parameter  measured_number
0  Cl.S=C(OC1CCCCC1)n1ccnc1  half-life at 20 mg/ml             12.3

Okay, next one:
The recorded half-life at 20 mg/ml for entry CCOC(=S)n1ccnc1.Cl equals 6.5

###

# Test Protocol: Inotropic activity in electrically-stimulated guinea pig papillary muscle compound treated every 45 mins by chart recorder analysis
# Type: functional, tissue-based
# Condition Context: Cavia porcellus, 0.75 h
pEC50: −log10 of the molar value.
Parameter: pEC50

In [3]: df
Out[3]:
              mol_smiles  parameter  result
0  CN(C)CCOC(=S)OCCN(C)C      pEC50  < 4.00

Per the record, S=C(SCc1ccccc1)n1ccnc1 has pEC50 of 4.52

Data point: COc1ccc(CSC(=S)n2ccnc2)cc1 ; pEC50 = < 4.00

###

# Test system: Aorta
# Test Protocol: Vasodilating activity in potassium chloride-mediated precontracted guinea pig aorta compound treated every 45 mins by chart recorder analysis
# Format: functional, tissue-based
# Condition Context: Cavia porcellus, 0.75 h
Parameter: EC50

                          mol_smiles  parameter    result
0               CCCOC(=S)N1CCN(C)CC1       EC50  > 100 µM
1              CCCCCCOC(=S)OCCCN(C)C       EC50  > 100 µM
2                 CC(C)OC(=O)n1ccnc1       EC50  > 100 µM
3  C[N+](C)(C)CCOC(=S)OCC[N+](C)(C)C       EC50  > 100 µM
4              CN(C)CCOC(=S)OCCN(C)C       EC50  > 100 µM

Memo: CCOC(=S)N1CCN(C)CC1 , reported EC50: > 100 µM

CCOC(=S)OCCCN(C)C has a reported EC50 of > 100 µM

Consider O=C(OC1CCCCC1)n1ccnc1 . Its measured EC50 is > 100 µM

The compound CCCOC(=S)OCCCN(C)C showed EC50 equal to > 100 µM
